Record form. Attribute: melting point. Fill in for each entry.
Supply the numeric figure in °C, leaving out any unit text.

Problem: State, in one line, measured melting point of CCOC(=O)c1cc(C)c(N2CCc3c(C)nc(Nc4ccc(C#N)cc4)nc32)c(C)c1 [Compound 33]
Solution: 92

Problem: Provide measured melting point value, entry: C/C(C#N)=C\c1cc(C)c(N2CCc3c(C)nc(Nc4ccc(C#N)cc4)nc32)c(C)c1 [Compound 34]
Solution: 105

* * *

- Tested on: Strain F (mutations K103N and Y181C in HIV reverse transcriptase)
- METHOD NOTES: cellular antiviral assay, HIV mutant strain F
- Assay type: cell-based
- EXPERIMENTAL SETUP: strain F, K103N and Y181C
For each record, write down the corresponding pEC50 F.

Problem: Supply recorded pEC50 F for `COc1cc(/C=C/C#N)cc(C)c1N1CCc2c(C)nc(Nc3ccc(C#N)cc3)nc21` here.
Solution: 7.2

Problem: Find the measured pEC50 F of Cc1nc(Nc2ccc(C#N)cc2)nc2c1CCN2c1c(Cl)cc(C=CC#N)cc1Cl (mixture of isomers) [Compound 7b] and report it.
Solution: 7.7

Problem: Return reported pEC50 F. Input molecule: CCc1cc(C=CC#N)cc(CC)c1N1CCc2c(C)nc(Nc3ccc(C#N)cc3)nc21 (mixture of isomers)
Solution: 7.7

Problem: Dear colleague, please send me the reported pEC50 F for Cc1cc(C=CC#N)ccc1N1CCc2c(C)nc(Nc3ccc(C#N)cc3)nc21 (mixture of isomers) when you can.
Solution: 7.1

Problem: Retrieve pEC50 F measured for Cc1cc(C=CC#N)cc(C)c1N1CCc2c(C)nc(Nc3ccc(C#N)cc3)nc21 (mixture of isomers) and print it.
Solution: 7.9

Problem: Output pEC50 F of `CCc1cc(CCC#N)ccc1N1CCc2c(C)nc(Nc3ccc(C#N)cc3)nc21`
Solution: 7.2

Problem: Answer with the recorded pEC50 F for the molecule listed here: `Cc1cc(/C=C/C#N)cc(C)c1-n1c(-c2ccccn2)nc2cnc(Nc3ccc(C#N)cc3)nc21`
Solution: 7.2

Hey, just so you know, these numbers are from patent US9802943B2.
